Reference source for all entries: paper PMC10853778

assay-target: T1, RTEL1 HHD2 (Homo sapiens, UniProt Q9NZ71-6 1056-1140)
T1 sequence: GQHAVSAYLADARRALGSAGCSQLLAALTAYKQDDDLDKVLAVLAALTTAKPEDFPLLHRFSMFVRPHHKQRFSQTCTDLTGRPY
experiment-summary: ITC; pH 6.5; NMR: 20 mM Tris-HCl pH 7.4, 50 mM NaCl, 2 mM DTT, 0.02% NaN3, 10% D2O, 25 C (one ssDNA-22 titration at pH 6.5); ITC: 10 mM potassium phosphate pH 6.5, 50 mM KCl, 0.02% NaN3, 25 C
condition-parameters: protein: recombinant; tags: N-terminal 6xHis; 5' overhang 6 nt (strand 1)
outcome-measure: Kd (nM)
One number for each entry, in nM.

Qu. I would be grateful if you could share the reported Kd for 5'ss_dsDNA-24 (mixed) DNA 1: TTAGGCAGAGAGAGAGAGTTAGGC DNA 2: GCCTAACTCTCTCTCTCT .
Ans. 2580
